Target: Muscarinic acetylcholine receptor M2 (Homo sapiens); further: assay procedure not described here
Sequence (P08172 whole entry): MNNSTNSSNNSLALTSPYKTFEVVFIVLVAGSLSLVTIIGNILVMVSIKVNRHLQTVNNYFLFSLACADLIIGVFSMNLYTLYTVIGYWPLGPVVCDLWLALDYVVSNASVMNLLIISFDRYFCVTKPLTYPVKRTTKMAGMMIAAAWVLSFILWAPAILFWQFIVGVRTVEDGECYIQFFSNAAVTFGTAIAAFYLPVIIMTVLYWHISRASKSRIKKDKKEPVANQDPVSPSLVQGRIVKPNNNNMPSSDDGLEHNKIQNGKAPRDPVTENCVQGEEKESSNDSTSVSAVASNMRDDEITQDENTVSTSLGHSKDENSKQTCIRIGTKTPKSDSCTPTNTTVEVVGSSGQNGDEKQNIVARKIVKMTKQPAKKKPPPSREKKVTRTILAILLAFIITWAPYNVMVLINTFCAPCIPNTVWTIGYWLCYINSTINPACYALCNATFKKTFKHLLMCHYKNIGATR
Format: functional, cell-based
Recorded measurements of AC50, one per entry
reported-property: AC50

compound: C[N+](C)(C)CC(=O)O [BETAINE]
reported-property: AC50
result: > 30 µM
--
compound: COC(=O)[C@H]1[C@@H](OC(=O)c2ccccc2)C[C@@H]2CC[C@H]1N2C [COCAINE]
reported-property: AC50
result: > 30 µM
--
compound: CC(=O)c1ccc2c(c1)N(CCCN1CCN(CCO)CC1)c1ccccc1S2 [ACETOPHENAZINE]
reported-property: AC50
result: > 30 µM
--
compound: Cc1ccc(C(=O)c2cc(O)c(O)c([N+](=O)[O-])c2)cc1 [TOLCAPONE]
reported-property: AC50
result: > 10 µM
--
compound: O=C(OCCN1CCOCC1)c1cccnc1Nc1cccc(C(F)(F)F)c1 [MORNIFLUMATE]
reported-property: AC50
result: > 30 µM
--
compound: O=C1NCCN1CCN1CCC(c2cn(-c3ccc(F)cc3)c3ccc(Cl)cc23)CC1 [SERTINDOLE]
reported-property: AC50
result: > 30 µM
--
compound: Cc1cccc(C)c1OCC(C)N (centres undefined) [MEXILETINE]
reported-property: AC50
result: > 30 µM
--
compound: CN1CCCN=C1COC(=O)C(O)(c1ccccc1)C1CCCCC1 (centres undefined) [OXYPHENCYCLIMINE]
reported-property: AC50
result: > 10 µM
--
compound: O=C(O)c1cc(-c2ccc(F)cc2F)ccc1O [DIFLUNISAL]
reported-property: AC50
result: > 10 µM
--
compound: C=C1C[C@@H]2[C@H](CC[C@]3(C)C(=O)CC[C@@H]23)[C@@]2(C)C=CC(=O)C=C12 [EXEMESTANE]
reported-property: AC50
result: > 10 µM
--
compound: CN[C@@H](C)[C@H](O)c1ccccc1 [EPHEDRINE]
reported-property: AC50
result: 17 µM
--
compound: C[C@]12CCC(=O)C=C1CC[C@@H]1[C@@H]2CC[C@@]2(C)[C@H]1CC[C@]2(C)O [METHYLTESTOSTERONE]
reported-property: AC50
result: > 30 µM
--
compound: CC(C)C(=O)Nc1ccc([N+](=O)[O-])c(C(F)(F)F)c1 [FLUTAMIDE]
reported-property: AC50
result: > 10 µM
--
compound: NC(CO)C(=O)NNCc1ccc(O)c(O)c1O (centres undefined) [BENSERAZIDE]
reported-property: AC50
result: > 10 µM
--
compound: CCCCC(C)(O)C/C=C/[C@H]1[C@H](O)CC(=O)[C@@H]1CCCCCCC(=O)OC (some centres undefined) [MISOPROSTOL]
reported-property: AC50
result: > 30 µM
--
compound: CC(C)NCC1CCc2cc(CO)c([N+](=O)[O-])cc2N1 (centres undefined) [OXAMNIQUINE]
reported-property: AC50
result: > 10 µM
--
compound: CN(C)CCCN1c2ccccc2CCc2ccc(Cl)cc21 [CLOMIPRAMINE]
reported-property: AC50
result: > 10 µM
--
compound: CCCCCCCCOc1ccccc1C(=O)Nc1ccc(C(=O)OCC[N+](C)(CC)CC)cc1 [OTILONIUM BROMIDE]
reported-property: AC50
result: 16 µM
--
compound: CNC(=O)c1cc(Oc2ccc(NC(=O)Nc3ccc(Cl)c(C(F)(F)F)c3)cc2)ccn1 [SORAFENIB]
reported-property: AC50
result: > 30 µM
